experimental-target: T1, human DLL4 extracellular domain (human, UniProt Q9NR61 27-529)
T1 construct: purified recombinant ECD; biotin-labelled or 6xHis-tagged depending on the assay; also called huDLL4 ECD; hu DLL4 ECD
T1 sequence (Q9NR61 27-529 limits assumed): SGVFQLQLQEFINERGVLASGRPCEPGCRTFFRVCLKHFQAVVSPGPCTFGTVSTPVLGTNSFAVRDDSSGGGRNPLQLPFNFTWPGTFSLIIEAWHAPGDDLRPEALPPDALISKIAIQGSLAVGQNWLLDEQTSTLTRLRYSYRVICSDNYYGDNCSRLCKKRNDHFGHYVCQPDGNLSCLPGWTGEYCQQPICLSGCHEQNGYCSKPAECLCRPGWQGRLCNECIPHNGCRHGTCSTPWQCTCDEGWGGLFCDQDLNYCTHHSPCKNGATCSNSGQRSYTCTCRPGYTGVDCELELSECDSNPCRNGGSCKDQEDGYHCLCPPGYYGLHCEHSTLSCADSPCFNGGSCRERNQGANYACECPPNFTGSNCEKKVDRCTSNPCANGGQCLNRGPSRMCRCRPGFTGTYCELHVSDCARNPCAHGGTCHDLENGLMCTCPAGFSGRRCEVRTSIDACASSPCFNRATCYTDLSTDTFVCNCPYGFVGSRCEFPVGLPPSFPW
procedure-text: SPR (Biacore)
Method: The BIACORE® surface plasmon resonance assay (Biacore, Inc., Piscataway, N.J., US) determines the affinity of antibodies with kinetic measurements of on-rate and off-rate constants. […] The equilibrium dissociation constant KD (M) of the reaction between antibodies and the target antigen was then calculated from the kinetic rate constants by the following formula: KD=Koff/Kₒₙ. Binding was recorded as a function of time and kinetic rate constants were calculated.
Quick reference for pKd among some binders
Here pKd is given on a logarithmic scale as minus log10 of the concentration in mol/L.

Below, 2 binders whose answers are already recorded.
binder: 1A11 rat anti-DLL4 monoclonal antibody (antibody, rat IgG1, V domains shown, rat IgG1/K hybridoma mAb; also called MC13-1A11.2E1; 1A11 (rat mAb)) VH: EVQLVESGGGLVQPGRSMKLSCAASGFTFRNFPMAWVRQAPTRGLEWVATISSSDGTTYYRDSVKGRFTISRDNAKSTLYLQVNSLRSEDTATYYCSRGYYNSPFAYWGQGTLVTVSS VL: DIQMTQSPASLSASLGETVTIECRASEDIYSNLAWYQQKPGNSPQLLIFDTNNLADGVPSRFSGSGSGTQSSLKINSLQSEDVASYFCQQYNNYPPTFGGGTKLELKR
observed-measurement: 8.24
--
binder: 32C7 rat anti-DLL4 monoclonal antibody (antibody, rat IgG2a, V domains shown, rat IgG2a/k hybridoma mAb; also called MC10-32C7.5A4) VH: EVQLVESGGGLVQPGRSLKLSCLASGFPFSSVWMTWIRQAPGKGLEWIATITNSGASTYYSASVKGRFTISRDNVKSTLYLQMTSLGSEDTATYYCTRVGTSFDYWGQGVMVTVSS VL: DIQMTQSPASLSASLGETVTIECRASDDIYNGLAWFQQKPGKSPQLLIYDANTLHTGVPSRFSGSGSGTQFSLKINSLQSEDVASYFCQQFYDYPPYTFGAGTKLELKR
observed-measurement: 10.52

Lab note: next binder to report on.
The reported pKd of the binder 38H12 rat anti-DLL4 monoclonal antibody (antibody, rat IgG2a, V domains shown, rat IgG2a/k hybridoma mAb; also called MC10-38H12.2G8; 38H12 rat mAb) VH: EVQLVESGGGLVQPGRSLKLSCAASGFTFSNYGMYWIRQAPTKGLQWVAFISHGGGITYYRDSVKGRFTISRDNAKSTLYLQMDSLRSEDTATYHCAALNWELGIDYWGQGVMVTVSS VL: DIQMTQSPASLSASLGETISIECRASEDIYSNLAWYQKKSGKSPQLLIYAANRLQDGVPSRFSGSGSGTQYSLKISGMQPEDEGDYFCLQGSKFPLTFGSGTKLEIKR was 9.52
